All figures here come from the supplement of paper PMC4862054.

- Tested on: CAL-120
- Assay explanation: drug sensitivity score (DSS), CellTiter-Glo (DSS (AUC-based score)); higher = stronger drug effect (viability inhibition or cytotoxicity); extreme values may be limits of the assay
- Condition summary: incubation time: 72 h
Label MET for high-side drug sensitivity score (at or above 0.3) and NOT MET for low-side drug sensitivity score (below it).

-- ask Hello, I need to know if CO[C@@]12[C@H](COC(N)=O)C3=C(C(=O)C(C)=C(N)C3=O)N1C[C@@H]1N[C@@H]12 has measured drug sensitivity score not below 0.3. Thanks!
-- reply MET

-- ask Hello, I need to know if CC1(C)CCC(c2ccc(Cl)cc2)=C(CN2CCN(c3ccc(C(=O)NS(=O)(=O)c4ccc(N[C@H](CCN5CCOCC5)CSc5ccccc5)c(S(=O)(=O)C(F)(F)F)c4)cc3)CC2)C1 has measured drug sensitivity score not below 0.3. Thanks!
-- reply MET

-- ask Hello, I need to know if CNC(=O)c1ccccc1Sc1ccc2c(/C=C/c3ccccn3)n[nH]c2c1 has measured drug sensitivity score not below 0.3. Thanks!
-- reply MET

-- ask Hello, I need to know if CC(O)(CS(=O)(=O)c1ccc(F)cc1)C(=O)Nc1ccc(C#N)c(C(F)(F)F)c1 (configuration not stated) [Bicalutamide] has measured drug sensitivity score not below 0.3. Thanks!
-- reply NOT MET

-- ask Hello, I need to know if CC(C)n1cnc2c(NCCc3ccc(O)cc3)nc(-c3csc4ccccc34)nc21 has measured drug sensitivity score not below 0.3. Thanks!
-- reply NOT MET

-- ask Hello, I need to know if CCNC(=O)c1noc(-c2cc(C(C)C)c(O)cc2O)c1-c1ccc(CN2CCOCC2)cc1 has measured drug sensitivity score not below 0.3. Thanks!
-- reply MET

-- ask Hello, I need to know if C=CCn1c(=O)c2cnc(Nc3ccc(N4CCN(C)CC4)cc3)nc2n1-c1cccc(C(C)(C)O)n1 has measured drug sensitivity score not below 0.3. Thanks!
-- reply MET

###

Field: normalised response. Provide a value for each of the molecules that follow.
- System: MFM-223
- Assay explanation: normalised response (% of control), CellTiter-Glo; higher = more viable cells (100 = DMSO, 0 = benzethonium chloride kill control)
- Condition summary: incubation time: 72 h
Report the figure along with its unit, number first.

-- ask Given the molecule CCNC(=O)CCC/C=C\C[C@@H]1[C@@H](/C=C/[C@@H](O)CCc2ccccc2)[C@H](O)C[C@@H]1O [Bimatoprost] (5.5 nM) , what is its reported normalised response?
-- reply 96.1%

-- ask Given the molecule CC1(COc2ccc3c(c2)ncn3-c2ccc3cccc(N4CCC(N)CC4)c3n2)COC1 [Crenolanib] (1 nM) , what is its reported normalised response?
-- reply 99.5%

-- ask Given the molecule C/C(=C\c1csc(C)n1)[C@@H]1C[C@@H]2O[C@]2(C)CCC[C@H](C)[C@H](O)[C@@H](C)C(=O)C(C)(C)[C@@H](O)CC(=O)N1 [Ixabepilone] (1 nM) , what is its reported normalised response?
-- reply 106%

###

- Tested on: CAL-51
- Condition summary: 72 h
Experimental endpoint: EC50, CellTiter-Blue viability

-- ask Record CN(Cc1cnc2nc(N)nc(N)c2n1)c1ccc(C(=O)N[C@@H](CCC(=O)O)C(=O)O)cc1 [Methotrexate] : what is its EC50, CellTiter-Blue viability with CAL-51?
-- reply 84.8 nM

-- ask Record CC(C)(C)NC(=O)[C@H]1CC[C@H]2[C@@H]3CC[C@H]4NC(=O)C=C[C@]4(C)[C@H]3CC[C@]12C [Finasteride] : what is its EC50, CellTiter-Blue viability with CAL-51?
-- reply 8160 nM

-- ask Record Nc1ccn([C@@H]2O[C@H](CO)[C@@H](O)C2(F)F)c(=O)n1 : what is its EC50, CellTiter-Blue viability with CAL-51?
-- reply 22 nM

-- ask Record C/C(=C\c1csc(C)n1)[C@@H]1C[C@@H]2O[C@]2(C)CCC[C@H](C)[C@H](O)[C@@H](C)C(=O)C(C)(C)[C@@H](O)CC(=O)N1 [Ixabepilone] : what is its EC50, CellTiter-Blue viability with CAL-51?
-- reply > 1000 nM

###

- Test system: HCC1599
- Condition summary: 72 h
Experimental endpoint: EC50, CellTiter-Glo (nM)
Could you give me the number in nM? Just the number is fine.

-- ask Given the compound CNC(=O)c1ccccc1Sc1ccc2c(/C=C/c3ccccn3)n[nH]c2c1 , what is its reported EC50, CellTiter-Glo?
-- reply 881

-- ask Given the compound O=C(CCCCCCC(=O)Nc1ccccc1)NO , what is its reported EC50, CellTiter-Glo?
-- reply 3990

-- ask Given the compound COc1cc(Nc2c(C#N)cnc3cc(OCCCN4CCN(C)CC4)c(OC)cc23)c(Cl)cc1Cl , what is its reported EC50, CellTiter-Glo?
-- reply 3160

-- ask Given the compound COc1ccc(S(=O)(=O)Nc2cccnc2Nc2ccc(O)cc2)cc1 , what is its reported EC50, CellTiter-Glo?
-- reply 752

###

- Test system: MDA-MB-231
- Assay explanation: drug sensitivity score (DSS), CellTiter-Glo (DSS (AUC-based score)); higher = stronger drug effect (viability inhibition or cytotoxicity); extreme values may be limits of the assay
- Condition summary: incubation time: 72 h
Field: drug sensitivity score. Provide a value for each of the molecules that follow.
Answer with the value's number alone.

-- ask Given the molecule CN(C)C(=N)NC(=N)N , what is its reported drug sensitivity score?
-- reply 0

-- ask Given the molecule Cc1nc(C(=O)NCC(=O)O)c(O)c2ccc(Oc3ccccc3)cc12 , what is its reported drug sensitivity score?
-- reply 0

-- ask Given the molecule CN(Cc1cnc2nc(N)nc(N)c2n1)c1ccc(C(=O)N[C@@H](CCC(=O)O)C(=O)O)cc1 [Methotrexate] , what is its reported drug sensitivity score?
-- reply 7.21

-- ask Given the molecule CC[C@H](CO)Nc1nc(NCc2ccccc2)c2ncn(C(C)C)c2n1 , what is its reported drug sensitivity score?
-- reply 0

-- ask Given the molecule C=CCn1c(=O)c2cnc(Nc3ccc(N4CCN(C)CC4)cc3)nc2n1-c1cccc(C(C)(C)O)n1 , what is its reported drug sensitivity score?
-- reply 15.7

-- ask Given the molecule COc1cc(Nc2c(C#N)cnc3cc(OCCCN4CCN(C)CC4)c(OC)cc23)c(Cl)cc1Cl , what is its reported drug sensitivity score?
-- reply 8.52

###

- System: MDA-MB-453
- Assay explanation: drug sensitivity score (DSS), CellTox Green (DSS (AUC-based score)); higher = stronger drug effect (viability inhibition or cytotoxicity); extreme values may be limits of the assay
- Condition summary: incubation time: 72 h
Field: drug sensitivity score. Provide a value for each of the compounds that follow.
Answer with the value's number alone.

-- ask Given the compound CNC(=O)c1ccccc1Sc1ccc2c(/C=C/c3ccccn3)n[nH]c2c1 [Axitinib] , what is its reported drug sensitivity score?
-- reply 0

-- ask Given the compound CC(=O)[C@]1(O)Cc2c(O)c3c(c(O)c2[C@@H](O[C@H]2C[C@H](N)[C@H](O)[C@H](C)O2)C1)C(=O)c1ccccc1C3=O [Idarubicin] , what is its reported drug sensitivity score?
-- reply 0

-- ask Given the compound Cn1cc(C2=C(c3cn(C4CCN(Cc5ccccn5)CC4)c4ccccc34)C(=O)NC2=O)c2ccccc21 [Enzastaurin] , what is its reported drug sensitivity score?
-- reply 0

-- ask Given the compound O=C(CCCCCCC(=O)Nc1ccccc1)NO [Vorinostat] , what is its reported drug sensitivity score?
-- reply 0

-- ask Given the compound C=CCn1c(=O)c2cnc(Nc3ccc(N4CCN(C)CC4)cc3)nc2n1-c1cccc(C(C)(C)O)n1 [MK1775] , what is its reported drug sensitivity score?
-- reply 0

-- ask Given the compound COc1cc(Nc2c(C#N)cnc3cc(OCCCN4CCN(C)CC4)c(OC)cc23)c(Cl)cc1Cl [Bosutinib] , what is its reported drug sensitivity score?
-- reply 1.6

-- ask Given the compound CN(Cc1cnc2nc(N)nc(N)c2n1)c1ccc(C(=O)N[C@@H](CCC(=O)O)C(=O)O)cc1 [Methotrexate] , what is its reported drug sensitivity score?
-- reply 0.671

-- ask Given the compound CC1(C)CCC(c2ccc(Cl)cc2)=C(CN2CCN(c3ccc(C(=O)NS(=O)(=O)c4ccc(N[C@H](CCN5CCOCC5)CSc5ccccc5)c(S(=O)(=O)C(F)(F)F)c4)cc3)CC2)C1 [Navitoclax] , what is its reported drug sensitivity score?
-- reply 0

-- ask Given the compound C/C(=C\c1csc(C)n1)[C@@H]1C[C@@H]2O[C@]2(C)CCC[C@H](C)[C@H](O)[C@@H](C)C(=O)C(C)(C)[C@@H](O)CC(=O)N1 [Ixabepilone] , what is its reported drug sensitivity score?
-- reply 0

-- ask Given the compound O=C(O)CNC(=O)c1c(O)c2ccccc2n(Cc2ccccc2)c1=O [IOX-2] , what is its reported drug sensitivity score?
-- reply 1.5

-- ask Given the compound Nc1ccn([C@@H]2O[C@H](CO)[C@@H](O)C2(F)F)c(=O)n1 [Gemcitabine] , what is its reported drug sensitivity score?
-- reply 0
